- Target Entity: human dopamine transporter (Homo sapiens, UniProt Q01959)
- Construct: expressed in transfected cells; host or cells: HEK-293
- Sequence (Q01959 whole entry): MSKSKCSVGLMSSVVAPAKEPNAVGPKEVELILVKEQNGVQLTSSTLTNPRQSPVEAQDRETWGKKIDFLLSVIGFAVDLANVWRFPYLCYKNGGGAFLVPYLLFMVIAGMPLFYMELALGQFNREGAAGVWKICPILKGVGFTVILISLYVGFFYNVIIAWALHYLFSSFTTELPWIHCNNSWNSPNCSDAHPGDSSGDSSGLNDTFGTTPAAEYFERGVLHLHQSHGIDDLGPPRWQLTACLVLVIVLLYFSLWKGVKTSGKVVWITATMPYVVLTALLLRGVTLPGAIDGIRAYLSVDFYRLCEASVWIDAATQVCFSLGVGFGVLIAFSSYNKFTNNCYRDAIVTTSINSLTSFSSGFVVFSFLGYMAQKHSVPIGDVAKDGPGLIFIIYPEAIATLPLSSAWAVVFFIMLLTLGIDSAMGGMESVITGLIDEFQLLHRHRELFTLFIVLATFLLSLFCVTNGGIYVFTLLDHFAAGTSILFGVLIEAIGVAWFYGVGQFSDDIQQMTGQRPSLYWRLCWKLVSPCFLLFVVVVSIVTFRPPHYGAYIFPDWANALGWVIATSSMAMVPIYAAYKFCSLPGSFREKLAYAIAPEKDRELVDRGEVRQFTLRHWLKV
- Procedure Text: [3H]cocaine binding in hDAT HEK-293 cells after pre-incubation with compound and washing
- Condition Set: Table 6, incub time 24 h

[
  {
    "Compound": "COCC(=O)OCCCN1C2CCC1C(C(=O)OC)C(c1ccc(F)cc1)C2 (stereo not drawn) [Compound O-1071]",
    "Inhibition of Cocaine Binding (%)": 0
  },
  {
    "Compound": "COC(=O)C1C(c2ccc(F)cc2)CC2CCC1N2CCOC(=O)CCC1CO1 (stereo not drawn) [Compound O-1899]",
    "Inhibition of Cocaine Binding (%)": 0
  },
  {
    "Compound": "COC(=O)C1C(c2ccc(F)cc2)CC2CCC1N2CCOC(C)=O (stereo not drawn) [Compound O-1103]",
    "Inhibition of Cocaine Binding (%)": 0
  },
  {
    "Compound": "C=CCOC(=O)C1C2CCC(CC1c1ccc(Cl)c(Cl)c1)O2 (stereo not drawn) [Compound O-2227]",
    "Inhibition of Cocaine Binding (%)": 55
  },
  {
    "Compound": "CCN1C(=O)C=CC1=O [Compound O-1765]",
    "Inhibition of Cocaine Binding (%)": 35
  },
  {
    "Compound": "O=C(CCC1CO1)OCC1C2CCC(CC1c1ccc(Cl)c(Cl)c1)O2 (racemic) [Compound O-1834]",
    "Inhibition of Cocaine Binding (%)": 18
  }
]

* * *

- Target Entity: UniProtKB A7KAX8
- Procedure Text: Competition binding with [3H]citalopram at the serotonin transporter
- Condition Set: Table 5; read-out: Serotonin transporter IC50 (nM) [3H]citalopram

[
  {
    "Molecule": "O=C(CCC1CO1)OCC1C2CCC(CC1c1ccc(Cl)c(Cl)c1)O2 (racemic)",
    "Target Entity": "UniProtKB A7KAX8",
    "Bound Type": "=",
    "IC50 (nM)": 292
  },
  {
    "Molecule": "CC(C)CC(=O)OCC1C2CCC(CC1c1ccc(Cl)c(Cl)c1)O2 (centres unmarked)",
    "Target Entity": "UniProtKB A7KAX8",
    "Bound Type": "=",
    "IC50 (nM)": 515
  },
  {
    "Molecule": "COC(=O)[C@H]1[C@@H](OC(=O)c2ccccc2)C[C@@H]2CC[C@H]1N2C [(−)-Cocaine, cocaine, reference compound]",
    "Target Entity": "UniProtKB A7KAX8",
    "Bound Type": "=",
    "IC50 (nM)": 270
  },
  {
    "Molecule": "CCN1C(=O)C=CC1=O [N-Ethylmaleimide, N-ethylmaleimide, reference compound]",
    "Target Entity": "UniProtKB A7KAX8",
    "Bound Type": ">",
    "IC50 (nM)": 100000
  },
  {
    "Molecule": "COC(=O)C1C(c2ccc(F)cc2)CC2CCC1N2C (centres unmarked) [WIN 35,428, reference compound]",
    "Target Entity": "UniProtKB A7KAX8",
    "Bound Type": "=",
    "IC50 (nM)": 160
  },
  {
    "Molecule": "C=CCCC(=O)OCC1C2CCC(CC1c1ccc(Cl)c(Cl)c1)O2 (centres unmarked)",
    "Target Entity": "UniProtKB A7KAX8",
    "Bound Type": "=",
    "IC50 (nM)": 593
  },
  {
    "Molecule": "CCCCC(=O)OCC1C2CCC(CC1c1ccc(Cl)c(Cl)c1)O2 (centres unmarked)",
    "Target Entity": "UniProtKB A7KAX8",
    "Bound Type": "=",
    "IC50 (nM)": 917
  },
  {
    "Molecule": "C=CCCCOCC1C2CCC(CC1c1ccc(Cl)c(Cl)c1)O2 (centres unmarked)",
    "Target Entity": "UniProtKB A7KAX8",
    "Bound Type": "=",
    "IC50 (nM)": 755
  }
]

* * *

- Target Entity: human dopamine transporter (Homo sapiens, UniProt Q01959)
- Construct: expressed in transfected cells; host or cells: HEK-293
- Procedure Text: [3H]dopamine uptake in hDAT HEK-293 cells after pre-incubation with compound and washing
- Type: cell-based
- Set-up: concentration or dose not given beside the values
- Condition Set: 24-h pre-incubation, cells extensively washed, HEK-293 hDAT
Documented Inhibition of DA uptake after 24 h (%) across a set of compounds
Measured Quantity: Inhibition of DA uptake after 24 h (%)

[
  {
    "Compound": "CC(C)CC(=O)OCC1C2CCC(CC1c1ccc(Cl)c(Cl)c1)O2 (stereo not drawn) [Compound O-2059]",
    "Measured Quantity": "Inhibition of DA uptake after 24 h (%)",
    "Unit Spec": "%",
    "Reported Result": 60
  },
  {
    "Compound": "O=C(CCC1CO1)OCC1C2CCC(CC1c1ccc(Cl)c(Cl)c1)O2 (racemic) [Compound O-1834]",
    "Measured Quantity": "Inhibition of DA uptake after 24 h (%)",
    "Unit Spec": "%",
    "Reported Result": 68
  },
  {
    "Compound": "C=CCCC(=O)OCC1C2CCC(CC1c1ccc(Cl)c(Cl)c1)O2 (stereo not drawn) [Compound O-1893]",
    "Measured Quantity": "Inhibition of DA uptake after 24 h (%)",
    "Unit Spec": "%",
    "Reported Result": 23
  },
  {
    "Compound": "C=CCCCOCC1C2CCC(CC1c1ccc(Cl)c(Cl)c1)O2 (stereo not drawn) [Compound O-2153]",
    "Measured Quantity": "Inhibition of DA uptake after 24 h (%)",
    "Unit Spec": "%",
    "Reported Result": 40
  },
  {
    "Compound": "CCCCC(=O)OCC1C2CCC(CC1c1ccc(Cl)c(Cl)c1)O2 (stereo not drawn) [Compound O-2102]",
    "Measured Quantity": "Inhibition of DA uptake after 24 h (%)",
    "Unit Spec": "%",
    "Reported Result": 0
  },
  {
    "Compound": "CCN1C(=O)C=CC1=O [N-Ethylmaleimide, N-ethylmaleimide, reference compound]",
    "Measured Quantity": "Inhibition of DA uptake after 24 h (%)",
    "Unit Spec": "%",
    "Reported Result": 35
  }
]

* * *

- Target Entity: human dopamine transporter (Homo sapiens)
- Construct: expressed in transfected cells; host or cells: HEK-293
- Procedure Text: [3H]cocaine binding in hDAT HEK-293 cells after pre-incubation with compound and washing
- Condition Set: 24-h pre-incubation, cells extensively washed, [3H]cocaine 20 nM, HEK-293 hDAT
Measured Quantity: Inhibition of cocaine binding after 24 h (%)

[
  {
    "Compound": "C=CCCC(=O)OCC1C2CCC(CC1c1ccc(Cl)c(Cl)c1)O2 (stereo not drawn)",
    "Reported Result": 63
  },
  {
    "Compound": "C=CCCCOCC1C2CCC(CC1c1ccc(Cl)c(Cl)c1)O2 (stereo not drawn)",
    "Reported Result": 80
  },
  {
    "Compound": "CC(C)CC(=O)OCC1C2CCC(CC1c1ccc(Cl)c(Cl)c1)O2 (stereo not drawn)",
    "Reported Result": 60
  },
  {
    "Compound": "CCN1C(=O)C=CC1=O [N-Ethylmaleimide, N-ethylmaleimide, reference compound]",
    "Reported Result": 35
  },
  {
    "Compound": "O=C(CCC1CO1)OCC1C2CCC(CC1c1ccc(Cl)c(Cl)c1)O2 (racemic)",
    "Reported Result": 18
  },
  {
    "Compound": "CCCCC(=O)OCC1C2CCC(CC1c1ccc(Cl)c(Cl)c1)O2 (stereo not drawn)",
    "Reported Result": 0
  }
]

Each recorded value in this set is attributed to patent US7439264B2.
